- Tested on: human lung (A549) cancer cell line
- procedure_text: Cell viability, crystal violet dye binding assay, A549
- Format: cell-based
- run_parameters: Homo sapiens, A549, 48 h, read-out: CC50 (cytotoxic concentration), A549, A549, 48 h exposure, crystal violet, mean ± SD
CC50 values, listed per item
# unit: µM | format: bare number

compound: CC(=O)O[C@@]12CO[C@@H]1C[C@H](O)[C@@]1(C)C(=O)[C@H](O)C3=C(C)[C@@H](OC(=O)[C@H](O)[C@@H](NC(=O)OC(C)(C)C)c4ccccc4)C[C@@](O)([C@@H](OC(=O)c4ccccc4)[C@H]21)C3(C)C [Docetaxel, reference compound]
readout_unit: µM
CC50: 9.47

As a next step, examine the compound that follows.
Input line: Form field - read-out: CC50; system: human lung (A549) cancer cell line; submitted item: CC(=O)Oc1ccc(-c2cc3ccc(OC(C)=O)c(OC(C)=O)c3oc2=O)cc1 [Compound 6]
Output line: 75.2

---

- Test system: human lung (A549) cancer cell line
- procedure_text: Cell viability, crystal violet dye binding assay, A549
- Assay type: cell-based
- run_parameters: read-out: CC50 (cytotoxic concentration), A549; A549, 48 h exposure, crystal violet, mean ± SD
experimental_endpoint: CC50 (µM)
Dear colleague, please return just the value in µM, with no unit written.

Example results:
molecule: CC(=O)O[C@@]12CO[C@@H]1C[C@H](O)[C@@]1(C)C(=O)[C@H](O)C3=C(C)[C@@H](OC(=O)[C@H](O)[C@@H](NC(=O)OC(C)(C)C)c4ccccc4)C[C@@](O)([C@@H](OC(=O)c4ccccc4)[C@H]21)C3(C)C [Docetaxel, reference compound]
readout_unit: µM
CC50: 9.4

molecule: CC(=O)Oc1ccc(-c2cc3ccc(OC(C)=O)c(OC(C)=O)c3oc2=O)cc1 [Compound 6]
readout_unit: µM
CC50: 75.9

Now, please, on to the next molecule.
Input line: Observed CC50 on human lung (A549) cancer cell line for CC(=O)Oc1ccc2cc(-c3ccc(S(C)(=O)=O)cc3)c(=O)oc2c1OC(C)=O [Compound 7] , please.
Output line: 24.2

---

- System: human lung (A549) cancer cell line
- procedure_text: Cell viability, crystal violet dye binding assay, A549
- Type: cell-based
- run_parameters: Homo sapiens, A549, 48 h, read-out: CC50 (cytotoxic concentration), A549, A549, 48 h exposure, crystal violet, mean ± SD
Measured CC50 values are reported for all entries that follow.

chemical_smiles: CS(=O)(=O)c1ccc(-c2cc3ccccc3oc2=O)cc1
CC50: > 100 µM
//
chemical_smiles: CC(=O)Oc1ccc(-c2c(C)c3ccccc3oc2=O)cc1
CC50: > 100 µM

Pending molecule:
Input line: Consider the molecule `Cc1c(-c2ccc(S(C)(=O)=O)cc2)c(=O)oc2ccccc12` and give its measured CC50.
Output line: > 100 µM
